System: COX-1
ASSAY_PROCEDURE: Inhibitory activity against COX-1 (Table 4)
Format: biochemical
Design: dose or concentration left out as unconfirmed
Short version: COX-1 (% inhibition) at least 10 % inhibition is Satisfied, less is Not satisfied.

Q. Determine whether this compound has COX-1 (% inhibition) no lower than 10 % inhibition: CS(=O)(=O)c1ccc(-n2nc(CNC(=O)NC34CC5CC(CC(C5)C3)C4)cc2-c2ccccc2)cc1 [compound 1860]
A. Satisfied

Q. Determine whether this compound has COX-1 (% inhibition) no lower than 10 % inhibition: NS(=O)(=O)c1ccc(-n2nc(CCCNC(=O)Nc3ccc(C(F)(F)F)cc3)cc2-c2ccccc2)cc1 [compound 2328]
A. Satisfied

Q. Determine whether this compound has COX-1 (% inhibition) no lower than 10 % inhibition: CS(=O)(=O)c1ccc(-n2nc(CNC(=O)Nc3ccc(OC(F)(F)F)cc3)cc2-c2ccccc2)cc1 [compound 2323]
A. Satisfied

Q. Determine whether this compound has COX-1 (% inhibition) no lower than 10 % inhibition: NS(=O)(=O)c1ccc(-n2nc(CCCNC(=O)Nc3ccccc3)cc2-c2ccccc2)cc1 [compound 2245]
A. Satisfied

Q. Determine whether this compound has COX-1 (% inhibition) no lower than 10 % inhibition: CS(=O)(=O)c1ccc(-n2nc(CNC(=O)Nc3cccc(C(F)(F)F)c3)cc2-c2ccccc2)cc1 [compound 1861]
A. Not satisfied

Q. Determine whether this compound has COX-1 (% inhibition) no lower than 10 % inhibition: NS(=O)(=O)c1ccc(-n2nc(CCCNC(=O)NC34CC5CC(CC(C5)C3)C4)cc2-c2ccccc2)cc1 [compound 2326]
A. Not satisfied

Q. Determine whether this compound has COX-1 (% inhibition) no lower than 10 % inhibition: Cc1ccc(-c2cc(CCCNC(=O)Nc3cccc(C(F)(F)F)c3)nn2-c2ccc(S(N)(=O)=O)cc2)cc1 [compound 2152]
A. Satisfied

Q. Determine whether this compound has COX-1 (% inhibition) no lower than 10 % inhibition: NS(=O)(=O)c1ccc(-n2nc(CCCNC(=O)Nc3ccc(OC(F)(F)F)cc3)cc2-c2ccccc2)cc1 [compound 2329]
A. Satisfied

Q. Determine whether this compound has COX-1 (% inhibition) no lower than 10 % inhibition: NS(=O)(=O)c1ccc(-n2nc(CCCNC(=O)Nc3cccc(C(F)(F)F)c3)cc2-c2ccccc2)cc1 [compound 2246]
A. Satisfied

Q. Determine whether this compound has COX-1 (% inhibition) no lower than 10 % inhibition: NS(=O)(=O)c1ccc(-n2nc(CCNC(=O)Nc3cccc(C(F)(F)F)c3)cc2-c2ccccc2)cc1 [compound 2313]
A. Satisfied

Q. Determine whether this compound has COX-1 (% inhibition) no lower than 10 % inhibition: CS(=O)(=O)c1ccc(-n2nc(CCCNC(=O)Nc3cccc(C(F)(F)F)c3)cc2-c2ccccc2)cc1 [compound 1862]
A. Not satisfied

Q. Determine whether this compound has COX-1 (% inhibition) no lower than 10 % inhibition: NS(=O)(=O)c1ccc(-n2nc(CNC(=O)Nc3cccc(C(F)(F)F)c3)cc2-c2ccccc2)cc1 [compound 2107]
A. Satisfied

Q. Determine whether this compound has COX-1 (% inhibition) no lower than 10 % inhibition: NS(=O)(=O)c1ccc(-n2nc(NC(=O)Nc3cccc(C(F)(F)F)c3)cc2-c2ccccc2)cc1 [compound 2121]
A. Satisfied

Q. Determine whether this compound has COX-1 (% inhibition) no lower than 10 % inhibition: CC(C)c1cccc(C(C)C)c1NC(=O)NCCCc1cc(-c2ccccc2)n(-c2ccc(S(N)(=O)=O)cc2)n1 [compound 2325]
A. Not satisfied

Q. Determine whether this compound has COX-1 (% inhibition) no lower than 10 % inhibition: CC(C)(C)c1cc(CNC(=O)Nc2cccc(C(F)(F)F)c2)nn1-c1ccc(S(C)(=O)=O)cc1 [compound 2106]
A. Not satisfied

Q. Determine whether this compound has COX-1 (% inhibition) no lower than 10 % inhibition: CS(=O)(=O)c1ccc(-n2nc(CNC(=O)Nc3ccc(C(F)(F)F)cc3)cc2-c2ccccc2)cc1 [compound 2324]
A. Satisfied

Q. Determine whether this compound has COX-1 (% inhibition) no lower than 10 % inhibition: CS(=O)(=O)c1ccc(-n2nc(CNC(=O)NC3CCCCCC3)cc2-c2ccccc2)cc1 [compound 2321]
A. Not satisfied

Q. Determine whether this compound has COX-1 (% inhibition) no lower than 10 % inhibition: NS(=O)(=O)c1ccc(-n2nc(CCCNC(=O)Nc3ccc(Cl)cc3)cc2-c2ccccc2)cc1 [compound 2327]
A. Satisfied
